Below, each of the compounds is paired with its reported MIC value.
Tested on: Escherichia coli
Assay: In vitro antibacterial activity against Escherichia coli FabI

Below, each entry is followed by its recorded MIC result.
>  <COMPOUND_STRUCTURE_STRING>
Cc1ccc(C(=O)N2CCc3c(n(Cc4ccc(O)cc4)c4ccccc34)C2)c(O)c1

>  <TESTED_SYSTEM>
Escherichia coli

>  <MIC>
> 64 µg/mL

$$$$
>  <COMPOUND_STRUCTURE_STRING>
Oc1cc(Cl)ccc1Oc1ccc(Cl)cc1Cl

>  <TESTED_SYSTEM>
Escherichia coli

>  <MIC>
4 µg/mL

$$$$

QUERY: Item Cc1ccc(C(=O)N2CCc3c(n(Cc4ccc(O)cc4)c4ccccc34)C2)cc1 has what recorded MIC?
RESULT: > 64 µg/mL

QUERY: Another compound: O=C(c1ccc(Cl)cc1)N1CCc2c(n(Cc3ccc(O)cc3)c3ccccc23)C1
RESULT: > 64 µg/mL
